Molecular target: human PD-1 (Jurkat-PD-1 cells) / PE-labeled human PD-L1-Ig (Homo sapiens, UniProt Q15116)
Construct: expressed in transfected cells; host or cells: Jurkat cell line over-expressing human PD-1
Sequence (Q15116 25-288): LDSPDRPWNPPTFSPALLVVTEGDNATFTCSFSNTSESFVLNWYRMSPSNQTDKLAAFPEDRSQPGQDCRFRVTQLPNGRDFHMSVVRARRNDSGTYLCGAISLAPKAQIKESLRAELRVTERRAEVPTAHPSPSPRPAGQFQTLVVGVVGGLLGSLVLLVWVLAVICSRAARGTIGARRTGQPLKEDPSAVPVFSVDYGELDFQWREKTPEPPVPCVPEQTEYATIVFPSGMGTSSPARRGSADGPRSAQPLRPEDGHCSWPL
Assay: Jurkat-PD-1 Cell Binding High-Content Screening Assay (CBA); Jurkat hPD1-PDL1 assay
Details: Jurkat cell line over-expressing human PD-1; PE-labeled PD-L1-Ig 20 nM final; compound incubated 2 hours at 37° C.; read-out: Jurkat HPD1-PDL1 IC50
pIC50: −log10 of the molar value. Positions of bridges follow the written chain, without caps; N, C: chain ends. Non-standard residues stand in square brackets, D forms with d. Residues, ends and D or L forms follow the SMILES beside them. Bip(2'-Me) = Cc1ccccc1-c1ccc(C[C@H](N)C(=O)O)cc1; Bip = N[C@@H](Cc1ccc(-c2ccccc2)cc1)C(=O)O; hPhe = N[C@@H](CCc1ccccc1)C(=O)O; NMeA = CN[C@@H](C)C(=O)O; dAze = O=C(O)[C@H]1CCN1; Sar = CNCC(=O)O
// reported pIC50 per item
READOUT: pIC50

CC(C)C[C@@H]1NC(=O)[C@H](Cc2c[nH]c3ccccc23)NC(=O)[C@H](CC(=O)O)NC(=O)[C@H](Cc2ccc(O)cc2)NC(=O)[C@H](Cc2ccccc2)NC(=O)CSC[C@@H](C(=O)N[C@@H](C)C(N)=O)NC(=O)[C@H](CO)NC(=O)[C@H](C(C)C)NC(=O)[C@H](CC(C)C)NC(=O)[C@H](CC(N)=O)NC(=O)[C@H]2CCCN2C(=O)[C@@H](CCCCN)NC(=O)[C@H](C(C)C)NC(=O)[C@H](Cc2ccc(-c3ccccc3)cc2)NC1=O [Example 1197] ({CH2CO}-FYDWL[Bip]V[dK][dP]NLVSCA-NH2; thioether N-14) | 6.38
COC[C@@H]1NC(=O)[C@H](C(C)C)NC(=O)[C@H](CC(C)C)NC(=O)[C@H](CC(N)=O)NC(=O)CN(C)C(=O)[C@H](C)N(C)C(=O)[C@H](C(C)C)NC(=O)[C@H](Cc2ccc(-c3ccccc3)cc2)NC(=O)[C@H](CC(C)C)NC(=O)[C@H](Cc2c[nH]c3ccccc23)NC(=O)[C@H](CC(=O)O)NC(=O)[C@H](Cc2ccc(O)cc2)NC(=O)[C@H](Cc2ccccc2)NC(=O)CSC[C@@H](C(=O)N[C@@H](C)C(N)=O)NC1=O [Example 1123] ({CH2CO}-FYDWL[Bip]V[NMeA][Sar]NLVS(Me)CA-NH2; thioether N-14) | 6.36
Cc1ccccc1-c1ccc(C[C@@H]2NC(=O)[C@H](CC(C)C)NC(=O)[C@H](Cc3c[nH]c4ccccc34)NC(=O)[C@H](CC(=O)O)NC(=O)[C@H](Cc3ccc(O)cc3)NC(=O)[C@H](Cc3ccccc3)NC(=O)CSC[C@@H](C(=O)N[C@@H](C)C(N)=O)NC(=O)[C@H](CO)NC(=O)[C@H](C(C)C)NC(=O)[C@H](CC(C)C)NC(=O)[C@H](CC(N)=O)NC(=O)CN(C)C(=O)[C@H](C)N(C)C(=O)[C@H](C(C)C)NC2=O)cc1 [Example 1125] ({CH2CO}-FYDWL[Bip(2'-Me)]V[NMeA][Sar]NLVSCA-NH2; thioether N-14) | 6.33
CC(C)C[C@@H]1NC(=O)[C@H](Cc2c[nH]c3ccccc23)NC(=O)[C@H](CC(=O)O)NC(=O)[C@H](Cc2ccc(O)cc2)NC(=O)[C@H](CCc2ccccc2)NC(=O)CSC[C@@H](C(=O)N[C@@H](C)C(N)=O)NC(=O)[C@H](CO)NC(=O)[C@H](C(C)C)NC(=O)[C@H](CC(C)C)NC(=O)[C@H](CC(N)=O)NC(=O)CN(C)C(=O)[C@H](C)N(C)C(=O)[C@H](C(C)C)NC(=O)[C@H](Cc2ccc(-c3ccccc3)cc2)NC1=O [Example 1070] ({CH2CO}-[hPhe]YDWL[Bip]V[NMeA][Sar]NLVSCA-NH2; thioether N-14) | 6.74
CC(C)C[C@@H]1NC(=O)[C@H](Cc2c[nH]c3ccccc23)NC(=O)[C@H](CC(=O)O)NC(=O)[C@H](Cc2ccc(O)cc2)NC(=O)[C@H](Cc2ccccc2)NC(=O)CSC[C@@H](C(=O)N[C@@H](C)C(N)=O)NC(=O)[C@H](CO)NC(=O)[C@H](C(C)C)NC(=O)[C@H](CC(C)C)NC(=O)[C@H](CC(N)=O)NC(=O)[C@H]2CCN2C(=O)[C@H](C)N(C)C(=O)[C@H](C(C)C)NC(=O)[C@H](Cc2ccc(-c3ccccc3)cc2)NC1=O [Example 1021] ({CH2CO}-FYDWL[Bip]V[NMeA][dAze]NLVSCA-NH2; thioether N-14) | 7.40
COc1ccc(C[C@@H]2NC(=O)CSC[C@@H](C(=O)NCC(N)=O)NC(=O)[C@H](CO)NC(=O)[C@H](C(C)C)NC(=O)[C@H](CC(C)C)NC(=O)[C@H](CC(N)=O)NC(=O)CN(C)C(=O)[C@H](C)N(C)C(=O)[C@H](C(C)C)NC(=O)[C@H](Cc3ccc(-c4ccccc4)cc3)NC(=O)[C@H](CC(C)C)NC(=O)[C@H](Cc3c[nH]c4ccccc34)NC(=O)[C@H](CC(=O)O)NC(=O)[C@H](Cc3ccc(O)cc3)NC2=O)cc1 [Example 1138] ({CH2CO}-Y(Me)YDWL[Bip]V[NMeA][Sar]NLVSCG-NH2; thioether N-14) | 6.24
CC(C)C[C@@H]1NC(=O)[C@H](Cc2c[nH]c3ccccc23)NC(=O)[C@H](CC(=O)O)NC(=O)[C@H](Cc2ccc(O)cc2)NC(=O)[C@H](Cc2ccccc2)NC(=O)CSC[C@@H](C(=O)NCC(N)=O)NC(=O)[C@H]([C@@H](C)O)NC(=O)[C@H](C(C)C)NC(=O)[C@H](CC(C)C)NC(=O)[C@H](CC(N)=O)NC(=O)[C@H]2CCCN2C(=O)[C@H](C)N(C)C(=O)[C@H](C(C)C)NC(=O)[C@H](Cc2ccc(-c3ccccc3)cc2)NC1=O [Example 1395] ({CH2CO}-FYDWL[Bip]V[NMeA][dP]NLVTCG-NH2; thioether N-14) | 6.80
CC(C)C[C@@H]1NC(=O)[C@H](Cc2c[nH]c3ccccc23)NC(=O)[C@H](CC(=O)O)NC(=O)[C@H](Cc2ccc(O)cc2)NC(=O)[C@H](Cc2ccccc2)NC(=O)CSC[C@@H](C(=O)N[C@@H](C)C(N)=O)NC(=O)[C@H](CO)NC(=O)[C@H](C(C)C)NC(=O)[C@H](CC(C)C)NC(=O)[C@H](CC(N)=O)NC(=O)[C@H]2CCCN2C(=O)[C@H](C)N(C)C(=O)[C@H](CCC(=O)O)NC(=O)[C@H](Cc2ccc(-c3ccccc3)cc2)NC1=O [Example 1039] ({CH2CO}-FYDWL[Bip]E[NMeA][dP]NLVSCA-NH2; thioether N-14) | 7.15
